# systemUnderTest: T1, orthogonal hCD122 receptor (hoRb), hCD122 with H133D and Y134F (human, UniProt P14784 27-550)
# T1 sequence: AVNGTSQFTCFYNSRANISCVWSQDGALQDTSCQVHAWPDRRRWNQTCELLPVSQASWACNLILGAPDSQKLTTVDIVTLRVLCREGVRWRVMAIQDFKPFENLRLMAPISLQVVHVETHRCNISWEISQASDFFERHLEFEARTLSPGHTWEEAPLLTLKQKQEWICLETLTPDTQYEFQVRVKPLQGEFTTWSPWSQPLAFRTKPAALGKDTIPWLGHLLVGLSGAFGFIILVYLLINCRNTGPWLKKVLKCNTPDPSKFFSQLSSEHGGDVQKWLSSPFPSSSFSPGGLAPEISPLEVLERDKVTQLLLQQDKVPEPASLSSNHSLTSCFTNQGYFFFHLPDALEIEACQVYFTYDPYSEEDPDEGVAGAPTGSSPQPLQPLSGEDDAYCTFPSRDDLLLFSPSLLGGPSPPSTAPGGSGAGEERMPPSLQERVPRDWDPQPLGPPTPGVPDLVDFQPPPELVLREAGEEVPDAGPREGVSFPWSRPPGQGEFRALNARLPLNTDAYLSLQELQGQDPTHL
# measurementDescription: cell-based or functional assay
readoutType: NKL Ortho Proliferation Signal 1:10

Q126E, SQVLKA (ligand) APTSSSTKKTQLQLSQLLVLLKAILNGINNYKNPKLTRMLTFKFYMPKKATELKHLQCLEEELKPLEEVLNLAQSKNFHLRPRDLISNINVIVLELKGSETTFMCEYADETATIVEFLNRWITFCESIISTLT | 8600

(A) SQVLKW (ligand) APTSSSTKKTQLQLSQLLVLLKWILNGINNYKNPKLTRMLTFKFYMPKKATELKHLQCLEEELKPLEEVLNLAQSKNFHLRPRDLISNINVIVLELKGSETTFMCEYADETATIVEFLNRWITFCQSIISTLT
(B) SQVLVA (ligand) APTSSSTKKTQLQLSQLLVLLVAILNGINNYKNPKLTRMLTFKFYMPKKATELKHLQCLEEELKPLEEVLNLAQSKNFHLRPRDLISNINVIVLELKGSETTFMCEYADETATIVEFLNRWITFCQSIISTLT
stdin: Could you tell me which of A and B has the lower NKL Ortho Proliferation Signal 1:10 reading? Refer to your chosen item by its label in the answer.
stdout: B

(a) L18Q, SQVLKA (ligand) APTSSSTKKTQLQLSQLQVLLKAILNGINNYKNPKLTRMLTFKFYMPKKATELKHLQCLEEELKPLEEVLNLAQSKNFHLRPRDLISNINVIVLELKGSETTFMCEYADETATIVEFLNRWITFCQSIISTLT
(b) ΔL19, SQ_LKA (ligand) APTSSSTKKTQLQLSQLLLLKAILNGINNYKNPKLTRMLTFKFYMPKKATELKHLQCLEEELKPLEEVLNLAQSKNFHLRPRDLISNINVIVLELKGSETTFMCEYADETATIVEFLNRWITFCQSIISTLT
stdin: Short answer wanted: higher NKL Ortho Proliferation Signal 1:10, a or b ? Refer to your chosen item by its label in the answer.
stdout: a
(a: 41200, b: 9120)

(A) G27K, SQVLKA (ligand) APTSSSTKKTQLQLSQLLVLLKAILNKINNYKNPKLTRMLTFKFYMPKKATELKHLQCLEEELKPLEEVLNLAQSKNFHLRPRDLISNINVIVLELKGSETTFMCEYADETATIVEFLNRWITFCQSIISTLT
(B) L18D, SQVLKA (ligand) APTSSSTKKTQLQLSQLDVLLKAILNGINNYKNPKLTRMLTFKFYMPKKATELKHLQCLEEELKPLEEVLNLAQSKNFHLRPRDLISNINVIVLELKGSETTFMCEYADETATIVEFLNRWITFCQSIISTLT
stdin: Short answer wanted: higher NKL Ortho Proliferation Signal 1:10, A or B ? Refer to your chosen item by its label in the answer.
stdout: A
(A: 30600, B: 8160)
